# assayed.target: T1, TIGIT (human)
# T1 chain: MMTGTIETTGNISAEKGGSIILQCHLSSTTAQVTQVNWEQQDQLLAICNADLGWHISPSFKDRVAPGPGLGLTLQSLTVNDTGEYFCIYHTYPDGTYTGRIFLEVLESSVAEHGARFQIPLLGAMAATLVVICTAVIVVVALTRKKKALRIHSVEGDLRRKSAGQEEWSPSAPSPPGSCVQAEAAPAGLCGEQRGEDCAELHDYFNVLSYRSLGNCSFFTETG
# measurement.protocol: cell-based or functional assay
Measured IL-2 luciferase reporter, Normalized Fold Change from CD155-ECD accompanies every entry in the list below.
readout: IL-2 luciferase reporter, Normalized Fold Change from CD155-ECD (fold)

- variant CD155 IgV-Fc V9I, P18F, A47E, G50S, E68G, L79P, F91S, T107M (Fc fusion) WPPPGTGDIVVQAPTQVFGFLGDSVTLPCYLQVPNMEVTHVSQLTWERHSESGSMAVFHQTQGPSYSGSKRLEFVAARPGAELRNASLRMSGLRVEDEGNYTCLFVMFPQGSRSVDIWLRVLGSGGGGSEPKSSDKTHTCPPCPAPEAEGAPSVFLFPPKPKDTLMISRTPEVTCVVVDVSHEDPEVKFNWYVDGVEVHNAKTKPREEQYNSTYRVVSVLTVLHQDWLNGKEYKCKVSNKALPAPIEKTISKAKGQPREPQVYTLPPSRDELTKNQVSLTCLVKGFYPSDIAVEWESNGQPENNYKTTPPVLDSDGSFFLYSKLTVDKSRWQQGNVFSCSVMHEALHNHYTQKSLSLSPGK: 3
- variant CD155 IgV-Fc Q12H, P18T, L21S, G22S, V57A, Q62R, L79P, F91S, T107M (Fc fusion) WPPPGTGDVVVHAPTQVTGFSSDSVTLPCYLQVPNMEVTHVSQLTWARHGESGSMAAFHQTRGPSYSESKRLEFVAARPGAELRNASLRMSGLRVEDEGNYTCLFVMFPQGSRSVDIWLRVLGSGGGGSEPKSSDKTHTCPPCPAPEAEGAPSVFLFPPKPKDTLMISRTPEVTCVVVDVSHEDPEVKFNWYVDGVEVHNAKTKPREEQYNSTYRVVSVLTVLHQDWLNGKEYKCKVSNKALPAPIEKTISKAKGQPREPQVYTLPPSRDELTKNQVSLTCLVKGFYPSDIAVEWESNGQPENNYKTTPPVLDSDGSFFLYSKLTVDKSRWQQGNVFSCSVMHEALHNHYTQKSLSLSPGK: -4.1

Provenance of the data: patent US20230381229A1
